Molecular target: T1, SARS-COV-2 RBD (SARS-COV-2, UniProt P0DTC2 319-539)
T1 construct: also called WT RBD
Assay: ELISA, RBD coated on plate
OBSERVED PROPERTY: EC50 (ng/mL)
One number for each entry, in ng/mL.

Reference set, count: 9
[[record]]
binder = "C918 (antibody, V domains shown) VH: QVQLVESGGGLVKPGGSLRLSCTASGFTFSDYYMTWLRQAPGKGLEWVSYISSTSPYTSYADSVKGRFTISRDNARNSVYLQMNSLRAEDTAIYYCARVPPPQRLHPFDVWGQGTMVTVSS VL: DIQMTQSPSTLSASVGDRVTITCRASQSISSWLAWYQQKPGKAPKLLIYQASSLESGVPSRFSGSGSGTDFTLTISSLQPDDFATYYCQQYFRYSWTFGQGTKVEI"
observed_property = "EC50"
unit_text = "ng/mL"
readout_number = 1.78

[[record]]
binder = "C1042 (antibody, V domains shown) VH: QVQLVQSGAEVKKPGASVKVSCKASGYTFSDHYIYWVRQAPGQGLEWMGIINPSGGSTSYAQKFQGRVTMTRDTSTSTVYMELSSLKSEDTAVYYCSRDIVFVPATMAMDVWGQGTTVTVSS VL: EIVLTQSPATLSLSPGERATLSCRASQSVSRYLAWYQQKPGQAPRLLIYDASNRATGIPARFSGSGSGTDFTLTISSLEPEDFAVYYCQQRSNWLFTFGPGTKVDIK"
observed_property = "EC50"
unit_text = "ng/mL"
readout_number = 4.55

[[record]]
binder = "C1044 (antibody, V domains shown) VH: QVQLQESGPGLVKPSQTLSLTCTVSGGSISSGNYYLTWIRQPAGKGLEWIGHIYTSGSTNYNPSLKSRVTISVDTSMNQFSLKLSSVTAADTAVYYCARDIPPTWYFDLWGRGTLVTVSS VL: SYELTQPPSVSVAPGKTARITCGGNNIGSKNVHWYQQKPGQAPVLVVYDDSDRPSGIPERFSGSNSGNTATLTISRVEAGDEAGYYCQVWDSTSDHLFWVFGGGTKLTVL"
observed_property = "EC50"
unit_text = "ng/mL"
readout_number = 3.22

[[record]]
binder = "C1062 (antibody, V domains shown) VH: EVQLVESGGGLVQPGGSLRLSCAASGFTFSNYDMHWVRQTTGKGLEWVSAIGTAGDTYYPGSVKGRFTMSRENAKNSLYLQMNSLRAGDTAVYYCARGGLQTTTWLFDNWGQGTLVTVSS VL: DIQMTQSPSSLSASVGDRVTITCRASQTISRYLNWYQQKPGKAPKLLIYAASSLQSGVPSRFSGSGSGTDFTLTISSLQPEDFATYYCQQSYTMPPITFGQGTRLEIK"
observed_property = "EC50"
unit_text = "ng/mL"
readout_number = 2.61

[[record]]
binder = "C923 (antibody, V domains shown) VH: QVQLVESGGGLVKPGGSLRLSCAASGFTFSDYHMTWIRQAPGKGLEWVSYISNRSTYRNYADSVKGRFTISRDNAKNSLYLQMNSLRAEDTAVYYCARDGGAYDRFDYWGQGTLVTVSS VL: DIQMTQSPSSLSASVGDRVTITCQASQDIKKFLNWYQQKPGKAPKLLIYDASNLETGVPSRFSGSGSGTDLTFTISSLQPEDIATYYCQQYDNLPLTFGQGTKLEIK"
observed_property = "EC50"
unit_text = "ng/mL"
readout_number = 1.95

[[record]]
binder = "C1033 (antibody, V domains shown) VH: QVQLVQSGAEVKKPGSSVKVSCKASGGTFSRNVISWVRQAPGQGLEWMGGIIPMFGTANYAQKFQGRVTISADESTSTAYMELSSLRSEDTAVYYCAREDFILESAPIRENSYYYYGMDVWGQGTTVTVSS VL: EIVLTQSPGTLSLSPGERATLSCRASQSVSSNYLAWYQQKPGQAPRLLIYDASSRATGIPDRFSGSGSGTDFTLTIRRLEPEDFAVYYCQQYGGSPRTFGQGTKVEIK"
observed_property = "EC50"
unit_text = "ng/mL"
readout_number = 3.63

[[record]]
binder = "C945 (antibody, V domains shown) VH: QVQLVQSGAEVKKPGASVRISCKASGYTFTNYYMHWVRQAPGQGLEWMGIINPSGGSTTYAPKFQARVTMTRDTSTSTVYMELSSLRSDDTAVYYCARDYVLVPARSGMDVWGQGTTVTVS VL: EIVLTQSPATLSLSPGERATLSCRASQSVSSYLAWYQQKPGQAPRLLIYDASNRATGIPARFSGSGSGTDFTLTISSLEPEDFAIYYCQQRSNWPYTFGQGTKLEIK"
observed_property = "EC50"
unit_text = "ng/mL"
readout_number = 3.13

[[record]]
binder = "C996 (antibody, V domains shown) VH: EVQLVESGGGLVQPGGSLRLSCVASGFTSTNYDMHWVRQAPGRGLQWVSSIGTAGDTYYPGSVRGRFTISRENAKNSLDLQMNSLRVGDTAVYYCARGQRGYYDRSGYYWGWRAFDIWGQGTMVTVSS VL: SYELTQPPSVSVAPGQTARITCGGNNIGNKSVYWYQQKPGQAPVLVVYDDSGRPSGIPERFSGSNSANTATLTISRVEAGDEADYYCQVWDNNSDQFGGGTKLTVL"
observed_property = "EC50"
unit_text = "ng/mL"
readout_number = 3.07

[[record]]
binder = "C1026 (antibody, V domains shown) VH: QVQLVESGGGVVQPGKSLRLSCAASGFIFSSYSMHWVRQAPGKGLEWVAVVSNDGSGKFYADSVRGRFTIFRDNSKNTLYLQVSSLRAEDTAVYYCARDALTSISVLFDCWGQGTLVTVSS VL: DIQMTQSPSSLSASLGDRVTITCRASQSISNYLNWYQQKPGKAPKLLIYGASSLQSGVPSRFSGSGSGTDFTLTISNLQPEDFATYFCQQSYSTPSVTFGGGTKVEIK"
observed_property = "EC50"
unit_text = "ng/mL"
readout_number = 2.5


Moving on to the next binder.
Asked: What value of measured EC50 is listed for C1046 (antibody, V domains shown) VH: EVQLVQSGAEVKKPGESLKISCKGSGYSFTSYWIGWVRQMPGKGLEWMGIIYPGDSDTRYSPSFQGQVTISADKSISTAYLQWSSLKASDTAMYYCARMVTSGTYYYDNSGYSSSGPFDYWGQGTLVTVSS VL: DIQLTQSPSSLSASVGDRVTITCRASQGISSALAWYQQKPGKAPKLLIYDASSLESGVPSRFSGSGSGTDFTLTISSLQPEDFATYYCQQFNNFGPGTKVDIK ?
Given back: 3.8
